The measurements presented in this section are drawn from patent US12139508B2.

Experiment: Pharmacokinetic assay in Balb/c mice (plasma and brain tissue)
Assay type: in vivo
Settings: mouse, po; plasma, 5 mg/kg p.o., male Balb/c mice; read-out: Area under curve AUC0-∞
AUC(0-inf): recorded values

{"chemical_string": "C[C@@]1(O)CC[C@H]2[C@H](CC[C@@H]3[C@@H]2CC[C@@]2(C)[C@H]3[C@H](C3CC3)C[C@@H]2C(=O)Cn2nc(C#N)cc2C#N)C1", "AUC(0-inf) / ng·h/mL": 6490}
{"chemical_string": "C[C@@]1(O)CC[C@H]2[C@H](CC[C@@H]3[C@@H]2CC[C@@]2(C)[C@H]3[C@@H]3C[C@@H]3[C@@H]2C(=O)Cn2ncnn2)C1", "AUC(0-inf) / ng·h/mL": 778}
{"chemical_string": "C[C@@]1(O)CC[C@H]2[C@H](CC[C@@H]3[C@@H]2CC[C@@]2(C)[C@H]3[C@@H]3C[C@@H]3[C@@H]2C(=O)Cn2cc(C#N)cn2)C1", "AUC(0-inf) / ng·h/mL": 1370}
{"chemical_string": "C[C@@H]1C[C@H](C(=O)Cn2nccn2)[C@@]2(C)CC[C@H]3[C@@H](CC[C@@H]4C[C@](C)(O)CC[C@@H]43)[C@H]12", "AUC(0-inf) / ng·h/mL": 605}
{"chemical_string": "C[C@@]1(O)CC[C@H]2[C@H](CC[C@@H]3[C@@H]2CC[C@@]2(C)[C@H]3[C@@H]3C[C@@H]3[C@@H]2C(=O)Cn2ccc(C(F)(F)F)n2)C1", "AUC(0-inf) / ng·h/mL": 484}

====

Biological target: GABA-A receptor
Assay: 35S-TBPS binding assay (GABAA receptor binding ability test)
Design: species or system Sprague-Dawley rat
Settings: rat cerebral cortex cell membrane, 5 μM GABA, 2 nM 35S-TBPS; read-out: 35S-TBPS bindng test: IC50 on inhibiting the TBPS binding activity
pIC50: −log10 of the molar value.

{"compound": "CC[C@@H]1C[C@H](C(=O)Cn2ncnn2)[C@@]2(C)CC[C@H]3[C@@H](CC[C@@H]4C[C@](C)(O)CC[C@@H]43)[C@H]12", "experimental_target": "GABA-A receptor", "pIC50": 7.59}
{"compound": "C[C@@]1(O)CC[C@H]2[C@H](CC[C@@H]3[C@@H]2CC[C@@]2(C)[C@H]3[C@@H]3C[C@@H]3[C@@H]2C(=O)COc2ccc(F)cc2C#N)C1", "experimental_target": "GABA-A receptor", "pIC50": 8.31}
{"compound": "Cc1cnn(CC(=O)[C@H]2[C@H]3C[C@H]3[C@H]3[C@@H]4CC[C@@H]5C[C@](C)(O)CC[C@@H]5[C@H]4CC[C@@]32C)c1", "experimental_target": "GABA-A receptor", "pIC50": 7.47}
{"compound": "C[C@@H]1C[C@H](C(=O)Cn2cc(C#N)cn2)[C@@]2(C)CC[C@H]3[C@@H](CC[C@@H]4C[C@](C)(O)CC[C@@H]43)[C@H]12", "experimental_target": "GABA-A receptor", "pIC50": 8.34}
{"compound": "C[C@@H]1C[C@H](C(=O)Cn2cc(Cl)cn2)[C@@]2(C)CC[C@H]3[C@@H](CC[C@@H]4C[C@](C)(O)CC[C@@H]43)[C@H]12", "experimental_target": "GABA-A receptor", "pIC50": 8.02}
{"compound": "C[C@@]1(O)CC[C@H]2[C@H](CC[C@@H]3[C@@H]2CC[C@@]2(C)[C@H]3[C@H](C3CC3)C[C@@H]2C(=O)Cn2cc(C#N)c(Cl)n2)C1", "experimental_target": "GABA-A receptor", "pIC50": 7.61}
{"compound": "C[C@@]1(O)CC[C@H]2[C@H](CC[C@@H]3[C@@H]2CC[C@@]2(C)[C@H]3[C@@H]3C[C@@H]3[C@@H]2C(=O)CNc2ccc(F)cc2)C1", "experimental_target": "GABA-A receptor", "pIC50": 7.52}
{"compound": "C[C@@]1(O)CC[C@H]2[C@H](CC[C@@H]3[C@@H]2CC[C@@]2(C)[C@H]3[C@@H]3C[C@@H]3[C@@H]2C(=O)Cn2ccc(C(F)(F)F)n2)C1", "experimental_target": "GABA-A receptor", "pIC50": 8.51}
{"compound": "C[C@@]1(O)CC[C@H]2[C@H](CC[C@@H]3[C@@H]2CC[C@@]2(C)[C@H]3[C@@H]3C[C@@H]3[C@@H]2C(=O)Cn2cc(Cl)cn2)C1", "experimental_target": "GABA-A receptor", "pIC50": 8.19}
{"compound": "C[C@@]1(O)CC[C@H]2[C@H](CC[C@@H]3[C@@H]2CC[C@@]2(C)[C@H]3[C@@H]3C[C@@H]3[C@@H]2C(=O)Cn2ccnn2)C1", "experimental_target": "GABA-A receptor", "pIC50": 7.38}
{"compound": "C[C@@]1(O)CC[C@H]2[C@H](CC[C@@H]3[C@@H]2CC[C@]2(C)C(C(=O)Cn4cc(C#N)cn4)C[C@@H](C4CC4)[C@@H]32)C1 (some centres unmarked)", "experimental_target": "GABA-A receptor", "pIC50": 8.12}
{"compound": "COc1ccc2c(c1)nnn2CC(=O)[C@H]1[C@H]2C[C@H]2[C@H]2[C@@H]3CC[C@@H]4C[C@](C)(O)CC[C@@H]4[C@H]3CC[C@@]21C [Example 54B]", "experimental_target": "GABA-A receptor", "pIC50": 7.93}
{"compound": "C[C@@H]1C[C@H](C(=O)Cn2nc(C#N)cc2C#N)[C@@]2(C)CC[C@H]3[C@@H](CC[C@@H]4C[C@](C)(O)CC[C@@H]43)[C@H]12", "experimental_target": "GABA-A receptor", "pIC50": 8.37}
{"compound": "COc1ccc2nnn(CC(=O)[C@H]3[C@H]4C[C@H]4[C@H]4[C@@H]5CC[C@@H]6C[C@](C)(O)CC[C@@H]6[C@H]5CC[C@@]43C)c2c1 [Example 54A]", "experimental_target": "GABA-A receptor", "pIC50": 7.93}
{"compound": "C[C@@]1(O)CC[C@H]2[C@H](CC[C@@H]3[C@@H]2CC[C@@]2(C)[C@H]3[C@@H]3C[C@@H]3[C@@H]2C(=O)Cn2cc(C(=O)N3CCC3)cn2)C1", "experimental_target": "GABA-A receptor", "pIC50": 7.19}
{"compound": "C[C@@]1(O)CC[C@H]2[C@H](CC[C@@H]3[C@@H]2CC[C@@]2(C)[C@H]3[C@@H]3C[C@@H]3[C@@H]2C(=O)Cn2cc(C(=O)N3CC(F)(F)C3)cn2)C1", "experimental_target": "GABA-A receptor", "pIC50": 7.19}
{"compound": "CCOC(=O)c1cnn(CC(=O)[C@H]2[C@H]3C[C@H]3[C@H]3[C@@H]4CC[C@@H]5C[C@](C)(O)CC[C@@H]5[C@H]4CC[C@@]32C)c1", "experimental_target": "GABA-A receptor", "pIC50": 8.30}
{"compound": "C[C@@]1(O)CC[C@H]2[C@H](CC[C@@H]3[C@@H]2CC[C@@]2(C)[C@H]3[C@@H]3C[C@@H]3[C@@H]2C(=O)Cn2nnc3ccc(F)cc32)C1 [Example 93B]", "experimental_target": "GABA-A receptor", "pIC50": 8.52}
{"compound": "C[C@@H]1C[C@H](C(=O)COc2cnc(C(F)(F)F)nc2)[C@@]2(C)CC[C@H]3[C@@H](CC[C@@H]4C[C@](C)(O)CC[C@@H]43)[C@H]12", "experimental_target": "GABA-A receptor", "pIC50": 8.06}
{"compound": "C[C@@]1(O)CC[C@H]2[C@H](CC[C@@H]3[C@@H]2CC[C@@]2(C)[C@H]3[C@@H]3C[C@@H]3[C@@H]2C(=O)Cn2ncc3ccncc32)C1", "experimental_target": "GABA-A receptor", "pIC50": 7.42}

====

System: PTZ-induced epilepsy model in CD-1 mice
Assay: In vivo pharmacodynamic test in the PTZ-induced epilepsy model in mice
Settings: dose 3 mpk p.o., PTZ 120 mg/kg s.c., 30 min observation
Number of generalized tonic seizures, Mean: recorded values
property_label: Number of generalized tonic seizures, Mean

{"chemical_string": "Cc1nnn(CC(=O)[C@H]2C[C@@H](C3CC3)[C@H]3[C@@H]4CC[C@@H]5C[C@](C)(O)CC[C@@H]5[C@H]4CC[C@@]32C)n1", "test_result": 0.3}
{"chemical_string": "C[C@@H]1C[C@H](C(=O)Cn2nccn2)[C@@]2(C)CC[C@H]3[C@@H](CC[C@@H]4C[C@](C)(O)CC[C@@H]43)[C@H]12", "test_result": 0.5}
{"chemical_string": "C[C@@H]1C[C@H](C(=O)Cn2ccc(C#N)n2)[C@@]2(C)CC[C@H]3[C@@H](CC[C@@H]4C[C@](C)(O)CC[C@@H]43)[C@H]12", "test_result": 0.0}
{"chemical_string": "C[C@@]1(O)CC[C@H]2[C@H](CC[C@@H]3[C@@H]2CC[C@@]2(C)[C@H]3[C@@H]3C[C@@H]3[C@@H]2C(=O)Cn2ccc(C#N)n2)C1", "test_result": 0.1}
